Where do the numbers come from? From patent US20260242416A1.

# Test system: E. coli ATCC 25922, Salmonella Enteritidis, S. aureus ATCC 29213
# procedure text: Broth microdilution, panel result (at least one / all strains), Example 2
# Assay type: cell-based
# Design: key: *Indicates inhibitory activity
# assay conditions: Table 14; against at least one of E. coli ATCC 25922, Salmonella Enteritidis, S. aureus ATCC 29213
Where a SMILES comes first, the peptide text is derived from it.
Answer each item with its documented inhibitory activity (asterisk).

molecule	inhibitory activity (asterisk)
CC[C@H](C)[C@H](NC(=O)CN)C(=O)N[C@@H](Cc1ccccc1)C(=O)N[C@@H](CO)C(=O)N[C@@H](CC(C)C)C(=O)N[C@H](C(=O)N[C@@H](CCCCN)C(=O)NCC(=O)N[C@@H](C)C(=O)N[C@@H](C)C(=O)N[C@@H](CCCCN)C(=O)N[C@H](C(=O)N[C@H](C(=O)N[C@@H](C)C(=O)N[C@@H](CCCCN)C(=O)NCC(=O)N[C@@H](CC(C)C)C(=O)NCC(=O)O)C(C)C)C(C)C)[C@@H](C)CC [PeNi3, GIFSLIKGAAKVVAKGLG] (H-GIFSLIKGAAKVVAKGLG-OH; N-terminus and C-terminus assumed)	1096.* GIFSLIKGAAKVVAKGLG

Continue with the next molecule.
Item under review: CC(C)C[C@H](NC(=O)CN)C(=O)N[C@@H](CC(C)C)C(=O)NCC(=O)N[C@@H](CCCCN)C(=O)N[C@H](C(=O)N[C@@H](CC(C)C)C(=O)NCC(=O)N[C@H](C(=O)NCC(=O)N[C@@H](CCCCN)C(=O)N[C@@H](CCCCN)C(=O)N[C@H](C(=O)N[C@@H](CC(C)C)C(=O)N[C@@H](CS)C(=O)NCC(=O)N[C@H](C(=O)N[C@@H](CO)C(=O)NCC(=O)N[C@@H](CCCNC(=N)N)C(=O)N[C@@H](CS)C(=O)O)C(C)C)C(C)C)C(C)C)C(C)C [RaOm4] (H-GLLGKVLGVGKKVLCGVSGRC-OH; N-terminus and C-terminus assumed) . Reported inhibitory activity (asterisk)?
628.* GLLGKVLGVGKKVLCGVSGRC

###

# procedure text: alamarBlue cell viability assay (cytotoxicity)
# Format: cell-based, human
# assay conditions: human, HEK293 cells, at 128 μg/mL
Where a SMILES comes first, the peptide text is derived from it.
metric: viability at 4 h, 128 µg/mL (%)
Give bare numbers, in %.

Item under review: CC[C@H](C)[C@H](NC(=O)[C@H](CCCCN)NC(=O)CNC(=O)[C@H](CC(C)C)NC(=O)[C@H](CC(C)C)NC(=O)CN)C(=O)N[C@@H](CC(C)C)C(=O)NCC(=O)N[C@H](C(=O)NCC(=O)N[C@@H](CCCCN)C(=O)N[C@@H](CCCCN)C(=O)N[C@H](C(=O)N[C@@H](CC(C)C)C(=O)N[C@@H](CS)C(=O)NCC(=O)N[C@H](C(=O)N[C@@H](CO)C(=O)NCC(=O)N[C@@H](CC(C)C)C(=O)N[C@@H](CS)C(=O)O)C(C)C)C(C)C)C(C)C [PeNi9] (H-GLLGKILGVGKKVLCGVSGLC-OH; N-terminus and C-terminus assumed) . Reported viability at 4 h, 128 µg/mL?
0

###

# System: E. coli ATCC 25922, Salmonella Enteritidis, S. aureus ATCC 29213
# procedure text: Broth microdilution, panel result (at least one / all strains), Example 2
# Assay type: cell-based
# Design: key: *Indicates inhibitory activity
# assay conditions: Table 14; against at least one of E. coli ATCC 25922, Salmonella Enteritidis, S. aureus ATCC 29213
Where a SMILES comes first, the peptide text is derived from it.
Answer each item with its documented inhibitory activity (asterisk).

compound	result
CC[C@H](C)[C@H](NC(=O)CNC(=O)[C@H](CO)NC(=O)[C@H](CC(C)C)NC(=O)[C@H](CC(C)C)NC(=O)CN)C(=O)N[C@@H](CC(C)C)C(=O)NCC(=O)N[C@@H](C)C(=O)NCC(=O)N[C@@H](CCCCN)C(=O)N[C@@H](CCCCN)C(=O)N[C@H](C(=O)N[C@H](C(=O)N[C@@H](CS)C(=O)NCC(=O)N[C@@H](Cc1ccccc1)C(=O)N[C@@H](CO)C(=O)NCC(=O)N[C@@H](CC(C)C)C(=O)N[C@@H](CS)C(=O)O)C(C)C)[C@@H](C)CC [OdMa1] (H-GLLSGILGAGKKIVCGFSGLC-OH; N-terminus and C-terminus assumed)	71.* GLLSGILGAGKKIVCGFSGLC

Continue with the next compound.
Item under review: CC[C@H](C)[C@H](NC(=O)CN)C(=O)N[C@@H](CC(C)C)C(=O)N[C@@H](CO)C(=O)NCC(=O)N[C@@H](CC(C)C)C(=O)N[C@@H](CC(C)C)C(=O)NCC(=O)N[C@@H](C)C(=O)NCC(=O)N[C@@H](CCCCN)C(=O)N[C@@H](CCCCN)C(=O)N[C@H](C(=O)N[C@H](C(=O)N[C@@H](CS)C(=O)O)C(C)C)[C@@H](C)CC [OdMa4, GILSGLLGAGKKIVC] (H-GILSGLLGAGKKIVC-OH; N-terminus and C-terminus assumed) . Reported inhibitory activity (asterisk)?
62.* GILSGLLGAGKKIVC
